System: MIA PaCa-2
assayMethodText: Antiproliferative activity against human MIAPaCa2 cells assessed as cell viability after 72 hrs
Type: functional, cell-based
reportedConditions: MIA PaCa-2, 72 h
propertyMeasured: IC50 (nM)
Enter your answer as a number in nM; do not include the unit.

Quick check: IC50 of O=C(NCc1ccc(S(=O)(=O)c2cc(F)cc(F)c2)cc1)c1ccc2nccn2c1 ? 7.4

---

assayMethodText: Oral bioavailability in NCR nude mouse at 10 mg/kg
Format: ADME, organism-based
reportedConditions: in vivo
propertyMeasured: bioavailability (%)
Enter your answer as a number in %; do not include the unit.

Quick check: bioavailability of O=C(NCc1ccc(S(=O)(=O)c2cc(F)cc(F)c2)cc1)c1ccc2nccn2c1 ? 41.1

---

Would you mind telling me the reported remaining at 0.5 h, 1 µM of each entry?
assayMethodText: Metabolic stability in human liver microsomes assessed as compound remaining at 1 uM after 30 mins LC-MS analysis
Type: ADME, Microsome
reportedConditions: liver microsomes, read-out: Stability
Enter your answer as a number in %; do not include the unit.

Quick check: remaining at 0.5 h, 1 µM of O=C(NCc1ccc(S(=O)(=O)c2ccccc2)cc1)c1ccc2nccn2c1 ? 77

How about this compound: O=C(NCc1ccc(S(=O)(=O)N2CCCCC2)cc1)c1cc2ccncc2[nH]1 50

How about this compound: O=C(NCc1ccc(S(=O)(=O)c2ccc(N3CCOCC3)nc2)cc1)c1ccc2nccn2c1 65

How about this compound: O=C(NCc1ccc(S(=O)(=O)c2ccc(N3CCOCC3)nc2)cc1)c1cc2ccncc2s1 23

How about this compound: O=C(NCc1ccc(S(=O)(=O)c2cccc(C(F)(F)F)c2)cc1)c1cc2cnccc2[nH]1 81

How about this compound: O=C(NCc1ccc(S(=O)(=O)c2ccccc2)cc1)c1ccc2cnccc2c1 31

How about this compound: Cn1c(C(=O)NCc2ccc(S(=O)(=O)c3ccccc3)cc2)cc2cnccc21 78

How about this compound: O=C(NCc1ccc(S(=O)(=O)c2ccccc2)cc1)c1cnc2nccn2c1 60

How about this compound: O=C(NCc1ccc(S(=O)(=O)c2ccccc2)cc1)c1ccc2nncn2c1 96

How about this compound: O=C(NCc1ccc(S(=O)(=O)c2cccnc2)cc1)c1cc2cnccc2[nH]1 75

---

Would you mind telling me the reported remaining at 0.5 h, 1 µM of each entry?
assayMethodText: Metabolic stability in human liver microsomes assessed as compound remaining at 1 uM after 30 mins LC-MS analysis
Assay type: ADME, Microsome
reportedConditions: liver microsomes, read-out: Stability
Enter your answer as a number in %; do not include the unit.

Quick check: remaining at 0.5 h, 1 µM of O=C(NCc1ccc(S(=O)(=O)c2ccccc2)cc1)c1cc(-c2cccnc2)no1 ? 69

How about this compound: CC(NC(=O)c1cc2cnccc2[nH]1)c1ccc(S(=O)(=O)N2CCCCC2)cc1 (stereo not drawn) 34

How about this compound: O=C(NCc1ccc(S(=O)(=O)c2cc(F)cc(F)c2)cc1)c1cc2ccncc2s1 41

---

assayMethodText: Metabolic stability in human liver microsomes assessed as compound remaining at 1 uM after 30 mins LC-MS analysis
Assay type: ADME, Microsome
reportedConditions: liver microsomes, read-out: Stability
propertyMeasured: remaining at 0.5 h, 1 µM (%)
Enter your answer as a number in %; do not include the unit.

Quick check: remaining at 0.5 h, 1 µM of O=C(NCc1ccc(S(=O)(=O)N2CCCCC2)cc1)c1ccn2cncc2c1 ? 54

How about this compound: O=C(NCc1ccc(S(=O)(=O)c2cccc(C(F)(F)F)c2)cc1)c1cc2ccncc2o1 48

How about this compound: O=C(NCc1ccc(S(=O)(=O)N2CCCCC2)cc1)c1ccc2nc[nH]c2c1 53

How about this compound: Cn1c(C(=O)NCc2ccc(S(=O)(=O)c3ccccc3)cc2)cc2ccncc21 71

How about this compound: O=C(NCc1ccc(S(=O)(=O)N2CCCCC2)cc1)c1cnc2nccn2c1 64

How about this compound: O=C(/C=C/c1cccnc1)NCCCCC1CCN(C(=O)c2ccccc2)CC1 46.7

How about this compound: O=C(NCc1ccc(S(=O)(=O)c2ccc(F)cc2)cc1)c1cc2cnccc2[nH]1 91

How about this compound: N#CN=C(NCCCCCCOc1ccc(Cl)cc1)Nc1ccncc1 61

How about this compound: O=C(NCc1ccc(S(=O)(=O)c2ccccc2)cc1)c1cc2cnccc2[nH]1 75

How about this compound: O=C(NCc1ccc(S(=O)(=O)c2ccc(N3CCOCC3)nc2)cc1)c1cc2cnccc2[nH]1 75
